Assignment: determine reported pIC50 for the given compounds.
SYSTEM UNDER TEST: Aurora kinase B (Homo sapiens)
Sequence (Q96GD4 whole entry): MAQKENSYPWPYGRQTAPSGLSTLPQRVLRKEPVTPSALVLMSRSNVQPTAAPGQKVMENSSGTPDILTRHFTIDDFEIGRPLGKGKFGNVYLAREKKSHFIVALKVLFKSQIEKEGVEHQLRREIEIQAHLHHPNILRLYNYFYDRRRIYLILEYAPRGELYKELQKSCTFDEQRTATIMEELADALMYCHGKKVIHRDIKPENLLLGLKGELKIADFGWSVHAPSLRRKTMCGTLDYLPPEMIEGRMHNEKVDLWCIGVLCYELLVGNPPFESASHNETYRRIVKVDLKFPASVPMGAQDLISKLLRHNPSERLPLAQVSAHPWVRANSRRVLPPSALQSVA
ASSAY NAME: Inhibition of aurora B kinase using 5TAMRA-GRTGRRNSICOOH as substrate by fluorescent assay
CONDITION NOTES: read-out: IC50
Scale: negative log10 of molar concentration, which is what pIC50 denotes.

Consider Cc1csc(Nc2nccn3c(-c4cnn(C)c4)cnc23)c1 . Its measured pIC50 is 5.52

Consider Cc1cc(Nc2nccn3c(-c4cnn(C)c4)cnc23)sn1 . Its measured pIC50 is 6.44

Consider Cc1cc(Nc2nc(C3CC3)cn3c(-c4cn[nH]c4)cnc23)sn1 . Its measured pIC50 is 7.29

Consider CCSc1cn2c(-c3cn[nH]c3)cnc2c(Nc2cc(C)ns2)n1 . Its measured pIC50 is 7.62

Consider Cc1cc(Nc2nc(CCN)cn3c(-c4cn[nH]c4)cnc23)sn1 . Its measured pIC50 is 7.48

Consider Cc1cc(Nc2nc([S+](C)[O-])cn3c(-c4cn[nH]c4)cnc23)sn1 (racemic) . Its measured pIC50 is 6.73

Consider Cc1cc(Nc2nc(C(F)(F)F)cn3c(-c4cn[nH]c4)cnc23)sn1 . Its measured pIC50 is 6.60

Consider Cc1cc(Nc2nc(SC(C)(C)C)cn3c(-c4cn[nH]c4)cnc23)sn1 . Its measured pIC50 is 6.57

Consider Cc1cc(Nc2nc(Sc3ccc(F)cc3)cn3c(-c4cn[nH]c4)cnc23)sn1 . Its measured pIC50 is 6.89

Consider Cc1cc(Nc2nc(CN3CCOCC3)cn3c(-c4cn[nH]c4)cnc23)sn1 . Its measured pIC50 is 6.96

Consider CC(C)c1cc(Nc2nccn3c(-c4cnn(C)c4)cnc23)sn1 . Its measured pIC50 is 6.15

Consider Cc1cc(Nc2nc(C#N)cn3c(-c4cn[nH]c4)cnc23)sn1 . Its measured pIC50 is 6.66

Consider O=S(=O)(c1ccc(Nc2nccn3c(-c4cn[nH]c4)cnc23)cc1)N1CCOCC1 . Its measured pIC50 is 6.92

Consider Cn1cc(-c2cnc3c(Nc4cc(C5CCN(S(C)(=O)=O)CC5)ns4)nccn23)cn1 . Its measured pIC50 is 6.96

Consider Cn1cc(-c2cnc3c(Nc4cc(C5CCNCC5)ns4)nccn23)cn1 . Its measured pIC50 is 6.70

Consider CS(=O)(=O)N1CCC(c2cc(Nc3nccn4c(-c5cn[nH]c5)cnc34)sn2)CC1 . Its measured pIC50 is 7.74

Consider Cc1cc(Nc2nc(-c3cccnc3)cn3c(-c4cn[nH]c4)cnc23)sn1 . Its measured pIC50 is 7.21

###

SYSTEM UNDER TEST: Inhibitor of nuclear factor kappa-B kinase subunit beta (Homo sapiens, UniProt O14920)
Sequence (O14920 whole entry): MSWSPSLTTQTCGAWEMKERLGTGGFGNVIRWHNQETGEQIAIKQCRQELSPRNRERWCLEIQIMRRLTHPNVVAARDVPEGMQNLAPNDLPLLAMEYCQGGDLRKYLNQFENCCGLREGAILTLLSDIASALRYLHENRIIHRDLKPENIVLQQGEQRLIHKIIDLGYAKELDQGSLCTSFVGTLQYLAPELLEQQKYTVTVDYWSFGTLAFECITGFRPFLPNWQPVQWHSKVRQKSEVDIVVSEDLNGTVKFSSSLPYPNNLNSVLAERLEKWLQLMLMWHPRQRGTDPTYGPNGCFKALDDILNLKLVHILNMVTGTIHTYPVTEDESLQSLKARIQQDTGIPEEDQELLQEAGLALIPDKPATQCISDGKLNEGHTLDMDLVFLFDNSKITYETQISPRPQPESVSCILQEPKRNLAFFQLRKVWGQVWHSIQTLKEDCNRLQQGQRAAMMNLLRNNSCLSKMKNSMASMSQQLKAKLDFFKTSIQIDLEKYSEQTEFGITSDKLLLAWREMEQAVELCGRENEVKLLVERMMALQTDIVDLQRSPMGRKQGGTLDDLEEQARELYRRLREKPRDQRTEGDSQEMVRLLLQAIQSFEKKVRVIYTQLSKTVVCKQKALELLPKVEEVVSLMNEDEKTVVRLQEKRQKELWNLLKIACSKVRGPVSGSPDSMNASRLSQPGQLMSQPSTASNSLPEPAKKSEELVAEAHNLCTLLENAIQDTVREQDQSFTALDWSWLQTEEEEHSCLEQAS
ASSAY NAME: Inhibition of IKKb
pIC50: −log10 of the molar value.
READOUT LABEL: pIC50

Consider CSc1cn2c(-c3cn[nH]c3)cnc2c(Nc2cc(C)ns2)n1 . Its measured pIC50 is < 5.00
